Measured Fold enrichment over TTM-001 accompanies every entry in the list below.
System: brain
protocol: Maturation of TTM-001 capsid, NGS enrichment in brain of CD-1 Outbred mice
Format: in vivo
condition.info: NGS fold-enrichment of TTM-001 matured AAV capsid variants in the brain of CD-1 Outbred mice; intravenous 1.0×10^12 VG/dose; 14 days in life; RNA; relative to non-matured TTM-001 control

Field: example entries. Status: answers known.
| macromolecule.sequence | test.target | Fold enrichment over TTM-001 |
| --- | --- | --- |
| KTINGSGSPHLRRQNQQT | brain | 3.493 fold |
| KTINGSGSPHLCLQNQQT | brain | 3.425 fold |
| KTINGSGSPHSKACPLQT | brain | 2.285 fold |
| KTINTIESPHSKAQNQQT | brain | 2.331 fold |
| KTINGSGSPHSRVRNQQT | brain | 2.540 fold |

In one line, give reported Fold enrichment over TTM-001 of the entry `KTINGSGSPHSLLYNQQT` . 2.158 fold

In one line, give reported Fold enrichment over TTM-001 of the entry `KTINGSGSPHSKSHRQQT` . 2.145 fold

In one line, give reported Fold enrichment over TTM-001 of the entry `KTINGSGSPHSWGSNQQT` . 2.473 fold

* * *

Test system: brains, heart, liver, muscle, and DRG of the NHPs
protocol: Maturation of TTM-001 and TTM-002 capsids, NGS enrichment in NHP tissues
Assay type: in vivo
condition.info: NHP liver RNA; NGS; TTM-001 and TTM-002 matured AAV capsid variants; relative to AAV9 control
Measured Fold Enrichment relative to AAV9, Liver RNA (NHP) accompanies every entry in the list below.
Your answer is read as fold, so omit the unit and give the number.

| macromolecule.sequence | numeric.readout |
| --- | --- |
| KTINGSGSPHSLCLNQQT | 17.028 |
| KTINGSGSPHLPTQNQQT | 20.704 |

Fill: Fold Enrichment relative to AAV9, Liver RNA (NHP) (brains, heart, liver, muscle, and DRG of the NHPs) for this sequence `KTINGSGSPHSRFWNQQT` 51.225

Fill: Fold Enrichment relative to AAV9, Liver RNA (NHP) (brains, heart, liver, muscle, and DRG of the NHPs) for this sequence KTINGSSSPHWMAQNQQT (peptide inserted in AAV capsid) 16.635

Fill: Fold Enrichment relative to AAV9, Liver RNA (NHP) (brains, heart, liver, muscle, and DRG of the NHPs) for this sequence `KTINGSGSPHSKPFRQQT` 29.842

* * *

System: brain, spinal cord, and DRG of the NHPs
protocol: NGS fold enrichment of synthetic library (passage 3) in NHPs, first cross-species screen
Format: in vivo, cynomolgus macaques (Macaca fascicularis)
condition.info: synthetic library passage 3, intravenous, RNA NGS, spinal cord of NHPs, relative to wild-type AAV9
experimental.endpoint: Fold enrichment over AAV9 in the spinal cord of NHPs (fold)
Your answer is read as fold, so omit the unit and give the number.

Field: example entries. Status: answers known.
| macromolecule.sequence | test.target | numeric.readout |
| --- | --- | --- |
| GWERSFVSGQNQQT | brain, spinal cord, and DRG of the NHPs | 0.943 |
| GSGSQLMSLQNQQT | brain, spinal cord, and DRG of the NHPs | 3.559 |
| GNSMERTSGQNQQT | brain, spinal cord, and DRG of the NHPs | 4.177 |
| GSGQNAHAKEGQQT | brain, spinal cord, and DRG of the NHPs | 0.000 |

Would you kindly look at the next entry?
In one line, give reported Fold enrichment over AAV9 in the spinal cord of NHPs of the entry `GSGFNQRSEQNQQT` . 4.491
